FYI, the data here is from ChEMBL document CHEMBL3885881.

Species: Rattus norvegicus
Assay protocol: DrugMatrix - Regimen: Daily Repeat
Format: toxicity, organism-based, Sprague-Dawley
Set-up: regimen Daily Repeat, gender Male, age 6-8 weeks
Experimental setup: in vivo, po, 0 mg/kg, 120 h, tissue Plasma, route oral GAVAGE, dose level Control, time 5 day, […]
Property label: CREATININE (mg/dL)
Report the figure in mg/dL without appending any unit label.

compound=Cn1cnc([N+](=O)[O-])c1Sc1ncnc2nc[nH]c12 result=0.14
compound="CC(C)(Oc1ccc(CCNC(=O)c2ccc(Cl)cc2)cc1)C(=O)O [BEZAFIBRATE]" result=0.18
compound="CCCC[C@@H](CC)COC(=O)c1ccccc1C(=O)OC[C@@H](CC)CCCC [BIS(2-ETHYLHEXYL)PHTHALATE]" result=0.17

Record request: CREATININE value, item `COCc1c(C(C)C)nc(C(C)C)c(/C=C/[C@@H](O)C[C@@H](O)CC(=O)O)c1-c1ccc(F)cc1`
0.23

Record request: CREATININE value, item `c1ccc2[nH]c(-c3cscn3)nc2c1`
0.17

Record request: CREATININE value, item CSc1ccc2c(c1)N(CCC1CCCCN1C)c1ccccc1S2 (stereo unspecified)
0.22
